- Tested on: Caco-2
- method.summary: relative viability EC50 (midpoint between 100% and the lowest measured viability); higher = less toxic
- condition.set: 72 h
Structures can show the parent of a compound that is named as a salt.
For each record, write down the corresponding relative viability EC50.

Noted for N=C(Nc1ccc(I)cc1)NC1C2CC3CC(C2)CC1C3 (stereo not given) [IPAG] : its relative viability EC50 reads 2.05 µM

GET /value?item= Cc1ccc(F)c(NC(=O)Nc2ccc(-c3cccc4[nH]nc(N)c34)cc2)c1 [linifanib] &field=relative viability EC50 returns > 10 µM

Lab book: relative viability EC50 of "C[C@H](N/C(=N/C#N)Nc1cccc2ncccc12)c1ccccc1" noted as > 10 µM

Noted for CC(N)CCCC(C)(C)O (stereo not given) [heptaminol] : its relative viability EC50 reads > 10 µM

For record CC1(COc2ccc3c(c2)ncn3-c2ccc3cccc(N4CCC(N)CC4)c3n2)COC1 [crenolanib] the listed relative viability EC50 is > 10 µM

Form: molecule = Cc1ccc(Cl)c(Nc2ccccc2C(=O)O)c1Cl [meclofenamic-acid] ; relative viability EC50 = > 10 µM

For reference, reported relative viability EC50 for O=c1[nH]c2ccccc2n1CCCN1CCN(C(c2ccccc2)c2ccccc2)CC1 [oxatomide] stands at > 10 µM

Lab note: measured relative viability EC50 of COc1cccc(C2(O)CCCCC2CN(C)C)c1 (stereo not given) [TRAMADOL HYDROCHLORIDE] was > 10 µM

Value of relative viability EC50 reported for the molecule C=Cc1cc(O)cc2nc(-c3ccc(O)c(F)c3)oc12 [prinaberel] is > 10 µM

relative viability EC50 recorded for this molecule, CSc1nc(N)cc(Oc2ccc(-c3nnc(Nc4cccc(C(F)(F)F)c4)[nH]3)cc2)n1 [KG-5] , is 1.57 µM

----------
- Tested on: Vero E6
- method.summary: cell viability relative to DMSO; higher = less toxic
- condition.set: 72 h; 1 nM
Counter-ions that a name gives are not always drawn.
Provide the recorded cell viability for the entries that follow.
Express the result in % but write the number alone.

Considering "O=[N+]([O-])c1cc2nc(O)c(O)nc2cc1[N+](=O)[O-]" , its cell viability with Vero E6 was recorded as 86.8

Readout cell viability for "c1ccc(CC2=NCCN2)cc1" , test system Vero E6, was 108

cell viability value, target or system Vero E6, for CC(C)(C)C(=O)CN1C(=O)[C@H](NC(=O)Nc2cccc(C(=O)O)c2)CN(C2CCCCC2)c2ccccc21 [nastorazepide] : 104

Kindly note: Vero E6, "CN(C(=O)c1c(O)c2ccccc2n(C)c1=O)c1ccccc1" , cell viability value reported: 103

# cell viability measured on Vero E6 for item CNCC(O)c1ccc(O)c(O)c1 (racemic) = 95.3

// molecule "Cc1cc(C(C)(C)C)c(O)c(C)c1CC1=NCCN1" , assay Vero E6, cell viability value: 100

The reported cell viability value, Vero E6, for "Cc1cn([C@H]2C=C[C@@H](CO)O2)c(=O)[nH]c1=O" reads 92.7

Entry CCC(NC(C)C)C(O)c1ccc(O)c(O)c1 (stereo not given) under Vero E6 had cell viability of 93.1

// assay Vero E6, entry "C=C1CC[C@@]2(O)[C@H]3Cc4ccc(O)c5c4[C@@]2(CCN3CC2CC2)[C@H]1O5" , cell viability value = 106

# cell viability measured on Vero E6 for item "C#Cc1cccc(Nc2ncnc3cc4c(cc23)OCCOCCOCCO4)c1" = 91.5

// cell viability (Vero E6) for "N#CN1CCCC1" = 99.6

Entry "C[C@]12CCC(=O)C=C1[C@@H]1C[C@@H]1[C@H]1[C@@H]3[C@@H]4C[C@@H]4[C@@]4(CCC(=O)O4)[C@@]3(C)CC[C@@H]12" , Vero E6 data, cell viability value: 108

Entry "CSc1nc(N)cc(Oc2ccc(-c3nnc(Nc4cccc(C(F)(F)F)c4)[nH]3)cc2)n1" , tested on Vero E6, has a reported cell viability of 98.9

// cell viability (Vero E6) for "CSc1ccc(C(=O)N[C@@H]2CCCC[C@@H]2NC(=O)CNC(=O)c2cc(C(F)(F)F)ccc2NC(=O)NC(C)C)cc1" = 101

Entry "Cc1ccc(C(=O)Cn2c3c(sc2=N)CCCC3)cc1" , tested on Vero E6, has a reported cell viability of 98.9

Short answer on Vero E6 for CO/N=C(\C(=O)N[C@@H]1C(=O)N2C(C(=O)O)=C(Cn3ccc(=N)n3CCO)CS[C@H]12)c1csc(N)n1 [Cefoselis sulfate] , cell viability: 103

Per the reported Vero E6 data, "N#Cc1c(-c2ccccc2)cc(-c2cc(Br)ccc2O)[nH]c1=O" has cell viability of 96.9

The observed cell viability for "O=C(NO)c1cnc(N2CCN(S(=O)(=O)c3ccc4ccccc4c3)CC2)nc1" when tested with Vero E6 stands at 102

cell viability for Vero E6 with input S=C=Nc1ccc(N=C=S)cc1 [bitoscanate] equals 90.7

Summary line: O=C(O)CC/C=C\C[C@@H]1CO[C@H](c2ccccc2Cl)O[C@@H]1c1ccccc1O (racemic) , Vero E6, reported cell viability = 93.1
